# credit: ChEMBL document CHEMBL1148617

Listing of entries alongside the reported inhibition.
testTarget: Adenosine receptor A2b (Homo sapiens) (UniProt P29275)
Sequence (whole entry): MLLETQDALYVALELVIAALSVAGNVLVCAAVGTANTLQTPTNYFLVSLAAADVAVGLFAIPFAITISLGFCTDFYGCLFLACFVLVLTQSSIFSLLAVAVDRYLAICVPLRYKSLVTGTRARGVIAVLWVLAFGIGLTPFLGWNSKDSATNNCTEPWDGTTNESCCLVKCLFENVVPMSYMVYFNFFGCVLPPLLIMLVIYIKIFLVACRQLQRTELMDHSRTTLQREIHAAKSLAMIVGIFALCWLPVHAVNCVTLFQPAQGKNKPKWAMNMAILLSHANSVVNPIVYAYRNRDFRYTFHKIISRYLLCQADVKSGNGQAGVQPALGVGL
testSummary: Displacement of [3H]DPCPX from recombinant human adenosine A2B receptor expressed in HEK293 cells at 0.01 uM
Please respond with the number in % and leave the unit unwritten.

Below are worked cases with known answers.
Q: Recall and state the measured inhibition for CCCn1c(=O)c2[nH]c(-c3ccc(OCC(=O)Nc4ncccc4O)cc3)cc2n(CCC)c1=O .
A: 37

Q: Input COc1cc(OCC(=O)Nc2ccc(Br)cc2)ccc1-c1cc2c([nH]1)c(=O)n(C)c(=O)n2C , output reported inhibition.
A: 60

Q: Query inhibition for CCCn1c(=O)c2[nH]c(-c3ccc(OCC(=O)Nc4ccc([N+](C)(C)C)cc4)cc3)cc2n(CCC)c1=O
A: 4

Q: For CCCn1c(=O)c2[nH]c(-c3ccc(OCC(=O)Nc4ccc(F)cc4)cc3)cc2n(C)c1=O , write its inhibition.
A: 57

Q: Return inhibition for the following compound: CCCn1c(=O)n(C)c(=O)c2[nH]c(-c3ccc(OCC(=O)N(C)Cc4ccccc4)cc3)cc21
A: 15

***
Q: Look up inhibition of CCCn1c(=O)c2[nH]c(-c3ccc(OC(C)C(=O)Nc4ccccc4)cc3)cc2n(CCC)c1=O (stereo not drawn) and report it.
A: 50

Q: Give inhibition for CCCn1c(=O)c2[nH]c(-c3ccc(N(C=O)CC(=O)Nc4ccc(Br)cc4)cc3)cc2n(CCC)c1=O
A: 48

Q: Please give the documented inhibition of CCCn1c(=O)c2[nH]c(-c3ccc(OC(C(=O)O)c4ccccc4)cc3)cc2n(CCC)c1=O (stereo not drawn)
A: 10

Q: Note inhibition for the compound shown: Cn1c(=O)c2[nH]c(-c3ccc(OCC(=O)Nc4cnccn4)cc3)cc2n(C)c1=O
A: 11

Q: Dear colleague, please send me the reported inhibition for CCCn1c(=O)c2[nH]c(-c3ccc(OCC(=O)Nc4ccc(I)cc4)cc3)cc2n(C)c1=O when you can.
A: 51

Q: Query inhibition for COCCCn1c(=O)n(C)c(=O)c2[nH]c(-c3ccc(OCC(=O)NC4CCCC4)cc3)cc21
A: 8

Q: // Input: Cn1c(=O)c2[nH]c(-c3ccc(OCC(=O)NCc4ccccc4)cc3)cc2n(C)c1=O . Output its inhibition only.
A: 12

Q: Identify measured inhibition associated with CCCn1c(=O)c2[nH]c(-c3ccc(OCC(=O)Nc4ccc(OC)cc4)cc3)cc2n(CCC)c1=O
A: 22

Q: Annotate the compound Cn1c(=O)c2[nH]c(-c3ccc(OCC(=O)Nc4ccc(C#N)cc4)cc3)cc2n(C)c1=O with its measured inhibition.
A: 60

Q: Return inhibition (reported value) for this compound: CCCn1c(=O)c2[nH]c(-c3ccc(OCC(=O)Nc4ccc(S(N)(=O)=O)cc4)cc3)cc2n(CCC)c1=O
A: 10

Q: Complete the entry with inhibition for CCCn1c(=O)c2[nH]c(-c3ccc(OCC(=O)Nc4ccc(OC(F)(F)F)cc4)cc3)cc2n(CCC)c1=O
A: 53

Q: Supply reported inhibition belonging to this compound: O=C(O)COc1ccc(-c2cc3c([nH]2)c(=O)n(CC(F)(F)F)c(=O)n3CC(F)(F)F)cc1
A: 16

Q: Supply inhibition value. Item: CCCn1c(=O)c2[nH]c(-c3ccc(OCC(=O)Nc4ccc(-c5ccccc5)cc4)cc3)cc2n(C)c1=O
A: 39

* * *

Listing of recorded inhibition by entry.
testTarget: Adenosine receptor A2a (Homo sapiens, UniProt P29274)
Sequence (P29274 whole entry): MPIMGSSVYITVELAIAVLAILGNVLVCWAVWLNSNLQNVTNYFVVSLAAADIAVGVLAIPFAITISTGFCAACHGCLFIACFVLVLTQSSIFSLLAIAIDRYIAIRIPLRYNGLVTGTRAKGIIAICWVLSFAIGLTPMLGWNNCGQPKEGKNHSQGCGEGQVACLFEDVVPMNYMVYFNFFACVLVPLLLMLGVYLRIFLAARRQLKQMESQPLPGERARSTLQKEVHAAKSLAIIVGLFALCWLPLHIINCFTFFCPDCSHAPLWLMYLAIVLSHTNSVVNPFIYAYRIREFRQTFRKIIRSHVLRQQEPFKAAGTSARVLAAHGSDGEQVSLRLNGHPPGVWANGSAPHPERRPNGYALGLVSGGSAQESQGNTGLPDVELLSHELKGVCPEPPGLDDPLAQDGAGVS
testSummary: Displacement of [3H]ZM-241385 from recombinant human adenosine A2A receptor expressed in HeLa cells at 0.1 uM
Write the value in % as a bare number.

Below are worked cases with known answers.
Q: Please list inhibition recorded for the molecule O=C(O)COc1ccc(-c2cc3c([nH]2)c(=O)n(CC2CC2)c(=O)n3CC2CC2)cc1
A: 40

Q: For the molecule CCCn1c(=O)c2[nH]c(-c3ccc(OCC(=O)Nc4ccc(CC(=O)OCC)cc4)cc3)cc2n(CCC)c1=O , report inhibition.
A: 10

Q: Input CCCn1c(=O)c2[nH]c(-c3ccc(OCC(=O)Nc4ccccc4Cl)cc3)c(Cl)c2n(CCC)c1=O , output reported inhibition.
A: 23

Further cases:
Q: Indicate its recorded inhibition; the molecule in question is CCCn1c(=O)c2[nH]c(-c3ccc(OCC(=O)Nc4ccc(S(N)(=O)=O)cc4)cc3)cc2n(CCC)c1=O
A: 37

Q: Name the recorded inhibition of the molecule listed here: CCCn1c(=O)c2[nH]c(-c3ccc(OCC(=O)Nc4cccc(F)c4)cc3)c(Cl)c2n(CCC)c1=O
A: 20

Q: Output inhibition of CCCn1c(=O)c2[nH]c(-c3ccc(OCC(=O)n4ccc(N)n4)cc3)cc2n(CCC)c1=O
A: 65

Q: Please give the documented inhibition of CCCn1c(=O)c2[nH]c(-c3ccc(OCC(=O)Nc4ccc(Br)cc4)cc3OC)cc2n(CCC)c1=O
A: 39

Q: # return recorded inhibition for entry CCCn1c(=O)c2[nH]c(-c3ccc(OCC(=O)O)cc3)c(Br)c2n(CCC)c1=O
A: 11

Q: Output inhibition of CCCn1c(=O)c2[nH]c(-c3ccc(OCC(=O)Nc4ccc(OC(F)(F)F)cc4)cc3)cc2n(CCC)c1=O
A: 31

* * *

testTarget: UniProt P29274
testSummary: Displacement of [3H]ZM-241385 from recombinant human adenosine A2A receptor expressed in HeLa cells at 0.1 uM
Quick reference for inhibition among some compounds
Put down the number, then write its unit next to it.

Consider the following illustrative entries.
Q: Tell us which inhibition value is on record for CCCn1c(=O)c2[nH]c(-c3ccc(OCC(=O)Nc4cc(C)ccn4)cc3)cc2n(CCC)c1=O
A: 34%

Q: Give a short answer stating reported inhibition for CC(Oc1ccc(-c2cc3c([nH]2)c(=O)n(C)c(=O)n3C)cc1)C(=O)Nc1ccccc1 (stereo not drawn) .
A: 60%

Q: Using known records, supply inhibition for CC(Oc1ccc(-c2cc3c([nH]2)c(=O)n(C)c(=O)n3C)cc1)C(=O)O (stereo not drawn)
A: 9%

Q: Indicate its recorded inhibition; the compound in question is CCCn1c(=O)c2[nH]c(-c3ccc(OCC(=O)Nc4cccc(C)n4)cc3)cc2n(CCC)c1=O
A: 45%

Q: Give me measured inhibition, please, for this compound: CCCn1c(=O)c2[nH]c(-c3ccc(OCC(=O)Nc4ncccc4O)cc3)cc2n(CCC)c1=O
A: 32%

Q: Answer with the recorded inhibition for the compound listed here: CCCn1c(=O)c2[nH]c(-c3ccc(OCC(=O)NCc4ccc(Cl)cc4)cc3)cc2n(C)c1=O
A: 20%

Q: Complete the entry with inhibition for CCCn1c(=O)c2[nH]c(-c3ccc(OCC(=O)NC(C(=O)O)c4ccccc4)cc3)cc2n(CCC)c1=O (stereo not drawn)
A: 3%

Q: For the compound CCCn1c(=O)c2[nH]c(-c3ccc(OCC(=O)NC(CCl)c4ccccc4)cc3)cc2n(CCC)c1=O (stereo not drawn) , give its reported inhibition.
A: 75%

Q: Identify measured inhibition corresponding to CCCn1c(=O)c2[nH]c(-c3ccc(N(C=O)CC(=O)O)cc3)cc2n(CCC)c1=O
A: 9%

Q: Please report the measured inhibition for CCCn1c(=O)c2[nH]c(-c3ccc(OCC(=O)NCc4ccc(F)cc4)cc3)c(Cl)c2n(CCC)c1=O
A: 44%

More entries:
Q: For Cn1c(=O)c2[nH]c(-c3ccc(OCC(=O)O)cc3)cc2n(CCN2CCOCC2)c1=O , write its inhibition.
A: 11%

Q: Please give measured inhibition of the following entry: CCN(Cc1ccccc1)C(=O)COc1ccc(-c2cc3c([nH]2)c(=O)n(C)c(=O)n3C)cc1
A: 17%

Q: Look up inhibition of CCCn1c(=O)c2[nH]c(-c3ccc(OC(C(=O)Nc4ccccc4)c4ccccc4)cc3)cc2n(CCC)c1=O (stereo not drawn) and report it.
A: 75%

Q: Look up inhibition of CCCn1c(=O)c2[nH]c(-c3ccc(OCC(=O)Nc4ccc(OC)cc4)cc3)c(Cl)c2n(CCC)c1=O and report it.
A: 45%

Q: Note inhibition for the compound shown: CCCn1c(=O)c2[nH]c(-c3ccc(OCC(=O)Nc4ccc(Cl)cc4)cc3)c(Cl)c2n(CCC)c1=O
A: 28%

Q: Return value of inhibition for input CCCn1c(=O)c2[nH]c(-c3ccc(OCC(=O)NC(C(=O)OC)c4ccccc4)cc3)cc2n(CCC)c1=O (stereo not drawn) , no commentary.
A: 39%

Q: Provide measured inhibition value, entry: CCCn1c(=O)c2[nH]c(-c3ccc(OCC(=O)c4c(NC(=O)O)[nH]c(=O)n(C)c4=O)cc3)cc2n(CCC)c1=O
A: 76%

Q: Output measured inhibition for this item: Cn1c(=O)c2[nH]c(-c3ccc(OCC(=O)Nc4nncs4)cc3)cc2n(C)c1=O
A: 43%
